Here the recorded IC50 is given for each entry.
Tested on: HCT-15 colon cancer cells
procedure details: cells
measurement context: Homo sapiens, HCT-15, 72 h, read-out: IC50 (µM) ± S.D. HCT-15
Write down the numeric answer in µM and omit the unit.

{"molecule": "CC(=O)N1CN2CN(C(C)=O)CP(C2)C1 [DAPTA]", "readout": "IC50", "meas value": 67.1}

With those in mind, consider the next molecule.
Req: // query IC50 value for entry c1ccc(P(c2ccccc2)c2ccccc2)cc1 [PPh3, triphenylphosphine]
Resp: 54.1

###

Test system: MCF-7 breast cancer cells
procedure details: cells
measurement context: Homo sapiens, MCF7, 72 h, read-out: IC50 (µM) ± S.D. MCF-7
Here the recorded IC50 is given for each entry.

{"smiles structure": "C1N2CN3CN1CP(C2)C3", "tested target": "MCF-7 breast cancer cells", "meas value": "> 100 µM"}
{"smiles structure": "N#CCCP(CCC#N)CCC#N", "tested target": "MCF-7 breast cancer cells", "meas value": "> 100 µM"}
{"smiles structure": "O=S1(=O)N2CN3CN1CP(C3)C2", "tested target": "MCF-7 breast cancer cells", "meas value": "69.5 µM"}
{"smiles structure": "CC(=O)N1CN2CN(C(C)=O)CP(C2)C1", "tested target": "MCF-7 breast cancer cells", "meas value": "85.3 µM"}

Req: // query IC50 value for entry c1ccc(P(c2ccccc2)c2ccccc2)cc1
Resp: 34.2 µM

Origin of the recorded values: paper PMC7700221
